SYSTEM: T1, UNK ZnF1-6 (called full-length) (human, UniProt Q9C0B0 30-357)
T1 sequence: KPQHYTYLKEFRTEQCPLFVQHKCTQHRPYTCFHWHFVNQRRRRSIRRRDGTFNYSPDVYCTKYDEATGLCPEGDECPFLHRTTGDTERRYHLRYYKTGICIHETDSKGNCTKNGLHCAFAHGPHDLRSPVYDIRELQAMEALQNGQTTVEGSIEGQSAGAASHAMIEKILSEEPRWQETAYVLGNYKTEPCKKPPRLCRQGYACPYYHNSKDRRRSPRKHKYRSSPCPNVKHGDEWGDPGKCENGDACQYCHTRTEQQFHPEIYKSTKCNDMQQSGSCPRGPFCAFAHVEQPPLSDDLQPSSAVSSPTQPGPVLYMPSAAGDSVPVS
EXPERIMENTAL PROTOCOL: nsRBNS (natural sequence RNA bind-n-seq); RBNS binding buffer (assumed for nsRBNS): 25 mM Tris pH 7.5, 150 mM KCl, 3 mM MgCl2, 0.01% Triton X-100, 500 ug/ml BSA, 20 U/ml SUPERase-In, 4 C; UNK is unkempt and MSI1 is Musashi-1; names of the RNAs are library labels; protein concentration not given here; high values mean tight binding
The full ranking holds about 5,800 sequences; the median of “enrichment r” is about 0.68, and the highest 2% start at about 11. A selection follows.
# key: entry, value: binding signal
Quick reminder: number only, in enrichment R, skip the unit.

Use these answered entries as a reference point.
{"columns": ["BINDER", "UNIT SPEC", "RECORDED VALUE"],
 "data": [
  ["chr4:1716041:1716142:-|3pUTR|ENSG00000168936|msi1|total|mutant (ssRNA) RNA: GGGAGUUCUACAGUCCGACGAUCAGGCUUCCCCGAGCGCUCAGCAGGUGAAGGCAGCAGGGGCCAUGGCCGGGAGCCAGGCCCCGCUUUGAACUGAGUUUCAAGGGCUGCCAAAGAGGGGCAGUGGGUUGGGGUUGUUUUUACCAACAGAGGAUUGAGCAUCA", "enrichment R", 0.696],
  ["chr12:131960804:131960905:+|CDS|ENSG00000183495|unk|total|mutant (ssRNA) RNA: GGGAGUUCUACAGUCCGACGAUCCCCUCAGCAAGCCCGUCGGCACCCCAGUCUCCCAGUUAUCAAAUACAGCAGCUGAUGAACCGGAGCCCUGCAACCGGGCAGAACGUGAACAUCACCCUGCAGAGCGUGGGCCCUGUCGUCCAACAGAGGAUUGAGCAUCA", "enrichment R", 1.09],
  ["chr5:91369659:91369760:-|3pUTR|ENSG00000113369|msi1|total|mutant (ssRNA) RNA: GGGAGUUCUACAGUCCGACGAUCUCAGCAUUUUCCAAGGUACCAAGUGUACUUAUUUUGUUGUUGUUGUUGUUGUUGUAUUUCCGAAGGAAUUCAGCUCUGAUGUUUUUAAAGAAAACCAGCAUCUCUGAUGUUGCAACAUACCAACAGAGGAUUGAGCAUCA", "enrichment R", 0.292],
  ["ENSG00000198589:be:win_2051|CDS|ENSG00000198589|bound_else_gene|NA|bound_elsewhere_windowed (ssRNA) RNA: GGGAGUUCUACAGUCCGACGAUCUACUGACUAUGCAUGAGGAUGACAAUCUAAUGGAUGUCCUACAGCUGCUUGUUGCAUUAAUGUCAGAACACCCUAACUCUAUGAUUCCUGCUUUUGACCAAAGGAAUGGGUUACGUGUUACAACAGAGGAUUGAGCAUCA", "enrichment R", 0.35],
  ["chr10:116672031:116672132:-|3pUTR|ENSG00000165868|msi1|total|mutant (ssRNA) RNA: GGGAGUUCUACAGUCCGACGAUCCCUUUCCUGCCUUGCAUUAAUGCUAUCUCCCUGUGUACUGUUUCUCUUAAAUGAGCAGACCGAAAUCUGCAGUGUUGGCAGACCGGUGAUGGAGAGGAUGAUAAUUUUAUCUUCUGGCCACAACAGAGGAUUGAGCAUCA", "enrichment R", 0.548],
  ["chr6:21593967:21594078:+|5pUTR|ENSG00000124766|unk|FALSE|bound_elsewhere (ssRNA) RNA: GGGAGUUCUACAGUCCGACGAUCUUAGUGCCGAUUCCGCCCACAGAGAGUCCUGGAGCCACAGUCUUUUUUGCUUUGCAUUGUAGGAGAGGGACUAAGUGCUAGAGACUAUGUCGCUUUCCUGAGCUACCGAGAGCGCUCGUGCAACAGAGGAUUGAGCAUCA", "enrichment R", 0.815]
]}

Ask: Data request, read-out binding signal, for chr13:45957189:45957298:-|CDS|ENSG00000123200|unk|total|mutant (ssRNA) RNA: GGGAGUUCUACAGUCCGACGAUCUGUUUUUGUUUUCUUCAAACCGGGCACCAUAAAACAAGCUUACACGAGUGCUCCAAUGGCCGACAAUGAAUUACUUCGAUUGAGUCUUCGGUUAUUUAAGCGGAAGACUACUUGCCAUGCCAACAGAGGAUUGAGCAUCA
Result: 0.325

Origin of measurements: paper PMC12136788
